# experimental system: BCL6 (Homo sapiens (Human), UniProt P41182)
# assay comment: Immunofluorescence high content imaging of BCL6 degradation in T47D cells
# Type: cell-based
# run parameters: T47D cells
Below, each entry is listed with its recorded Dmax.

compound	experimental system	Dmax
CNC(=O)COc1cc2cc(Nc3nc(N4CC5(CCN(CC6CCN(c7ccc8c(c7)C(=O)N(C7CCC(=O)NC7=O)C8=O)CC6)CC5)C4)ncc3Cl)ccc2n(C(C)C)c1=O (centres unmarked)	BCL6 (Homo sapiens (Human), UniProt P41182)	50 to 70%
CCn1c(=O)c(OCC(=O)NC)cc2cc(Nc3nc(N4CCC(OCC5CCN(c6ccc7c(c6)C(=O)N(C6CCC(=O)NC6=O)C7=O)CC5)CC4)ncc3Cl)ccc21 (centres unmarked)	BCL6 (Homo sapiens (Human), UniProt P41182)	< 50%
CNC(=O)COc1cc2cc(Nc3nc(N4CCN(CC5CCN(c6ccc7c(c6)C(=O)N(C6CCC(=O)NC6=O)C7=O)CC5)CC4)ncc3Cl)ccc2n(CCC2CC2)c1=O (centres unmarked)	BCL6 (Homo sapiens (Human), UniProt P41182)	50 to 70%
CNC(=O)COc1cc2cc(Nc3nc(N4CCC5(CC4)CN(CC4CCN(c6cccc7c6CN(C6CCC(=O)NC6=O)C7=O)CC4)C5)ncc3Cl)ccc2n(C(C)C)c1=O (centres unmarked)	BCL6 (Homo sapiens (Human), UniProt P41182)	50 to 70%
CNC(=O)COc1cc2cc(Nc3nc(N4CCC(OC5CC6(C5)CN(c5cccc7c5C(=O)N(C5CCC(=O)NC5=O)C7=O)C6)CC4)ncc3Cl)ccc2n(C(C)C)c1=O (centres unmarked)	BCL6 (Homo sapiens (Human), UniProt P41182)	≥ 70%
CCCn1c(=O)c(OCC(=O)NC)cc2cc(Nc3nc(N4CCN(CC5CCN(c6ccc7c(c6)C(=O)N(C6CCC(=O)NC6=O)C7=O)CC5)CC4)ncc3Cl)ccc21 (centres unmarked)	BCL6 (Homo sapiens (Human), UniProt P41182)	50 to 70%
CNC(=O)COc1cc2cc(Nc3nc(N4CCC5(CC4)CC(OC4CCN(c6cccc7c6CN(C6CCC(=O)NC6=O)C7=O)CC4)C5)ncc3Cl)ccc2n(C(C)C)c1=O (centres unmarked)	BCL6 (Homo sapiens (Human), UniProt P41182)	≥ 70%
CNC(=O)COc1cc2cc(Nc3nc(N4CCC(CN5CCC6(CC5)CN(c5ccc7c(c5)CN(C5CCC(=O)NC5=O)C7=O)C6)CC4)ncc3Cl)ccc2n(C(C)C)c1=O (centres unmarked)	BCL6 (Homo sapiens (Human), UniProt P41182)	≥ 70%
CNC(=O)COc1cc2cc(Nc3nc(N4CCC5(CC4)CC(OC4CCN(c6cccc7c6C(=O)N(C6CCC(=O)NC6=O)C7=O)CC4)C5)ncc3Cl)ccc2n(C(C)C)c1=O (centres unmarked)	BCL6 (Homo sapiens (Human), UniProt P41182)	≥ 70%
CNC(=O)COc1cc2cc(Nc3nc(N4CCC(CN5CC6(CCN(c7ccc8c(c7)C(=O)N(C7CCC(=O)NC7=O)C8=O)CC6)C5)CC4)ncc3Cl)ccc2n(C(C)C)c1=O (centres unmarked)	BCL6 (Homo sapiens (Human), UniProt P41182)	≥ 70%
CCn1c(=O)c(OCC(=O)NC)cc2cc(Nc3nc(N4CCC(CN5CC(C6CN(c7ccc8c(c7)C(=O)N(C7CCC(=O)NC7=O)C8=O)C6)C5)CC4)ncc3Cl)ccc21 (centres unmarked)	BCL6 (Homo sapiens (Human), UniProt P41182)	50 to 70%

Ref: patent US12310975B2
